This collection of values is drawn from ChEMBL document CHEMBL3991601.

measurementTarget: Aurora kinase B (Homo sapiens, UniProt Q96GD4); also: in the data inactive means no Kd found up to 30 µM
Sequence (Q96GD4 whole entry): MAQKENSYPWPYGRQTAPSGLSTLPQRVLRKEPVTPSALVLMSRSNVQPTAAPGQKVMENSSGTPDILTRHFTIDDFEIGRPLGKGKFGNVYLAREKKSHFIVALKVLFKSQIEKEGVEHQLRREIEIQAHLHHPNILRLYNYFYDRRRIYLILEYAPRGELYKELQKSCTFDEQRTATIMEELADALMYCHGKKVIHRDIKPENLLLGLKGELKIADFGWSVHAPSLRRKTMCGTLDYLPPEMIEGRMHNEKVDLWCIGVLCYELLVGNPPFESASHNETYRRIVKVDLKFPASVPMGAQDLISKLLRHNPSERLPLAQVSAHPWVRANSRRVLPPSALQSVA
Calls of active or inactive are those of the source.
Respond only with the outcome that fits, drawn from 1 = active, -1 = inactive

Worked examples follow.
Task item: What was the test verdict on Cc1cc(Nc2ncc(Cl)c(Nc3ccccc3S(=O)(=O)C(C)C)n2)c(OC(C)C)cc1C1CCNCC1 ?
Reply: -1

Task item: What was the test verdict on Cc1nc2cc(-c3nn(C(C)C)c4ncnc(N)c34)ccc2o1 ?
Reply: -1

***
Task item: What was the test verdict on Cc1cc(Nc2ncnc3ccc(NC4=NC(C)(C)CO4)cc23)ccc1Oc1ccn2ncnc2c1 ?
Reply: -1

Task item: What was the test verdict on O=C(Cc1ccc(-c2ccc(OCCN3CCOCC3)cc2)cn1)NCc1ccccc1 ?
Reply: -1

Task item: What was the test verdict on CN1C/C=C/CCOc2cccc(c2)-c2ccnc(n2)Nc2cccc(c2)C1 ?
Reply: -1

Task item: What was the test verdict on COc1ncc(-c2ccc3nccc(-c4ccnnc4)c3c2)cc1NS(=O)(=O)c1ccc(F)cc1F ?
Reply: -1

Task item: What was the test verdict on CCOc1cc2ncc(C#N)c(Nc3ccc(F)c(Cl)c3)c2cc1NC(=O)/C=C/CN(C)C ?
Reply: -1

====

measurementTarget: Mitogen-activated protein kinase 10 (Homo sapiens, UniProt P53779); also: in the data inactive means no Kd found up to 30 µM
Sequence (P53779 whole entry): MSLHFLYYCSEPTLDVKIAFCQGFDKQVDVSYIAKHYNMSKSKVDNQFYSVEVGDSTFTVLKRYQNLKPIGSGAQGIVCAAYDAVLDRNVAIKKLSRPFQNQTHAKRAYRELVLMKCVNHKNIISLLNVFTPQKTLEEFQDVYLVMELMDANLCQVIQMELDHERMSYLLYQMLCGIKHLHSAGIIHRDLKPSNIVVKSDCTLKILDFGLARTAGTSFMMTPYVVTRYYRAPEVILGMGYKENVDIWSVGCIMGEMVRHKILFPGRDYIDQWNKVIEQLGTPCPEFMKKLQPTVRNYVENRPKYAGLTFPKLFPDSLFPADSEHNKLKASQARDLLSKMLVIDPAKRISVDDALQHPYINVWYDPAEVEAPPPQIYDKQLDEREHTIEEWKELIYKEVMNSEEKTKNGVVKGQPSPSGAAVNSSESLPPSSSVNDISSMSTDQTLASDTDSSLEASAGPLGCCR
Calls of active or inactive are those of the source.
readoutLabel: Kd

Solved cases (5 shown):
Task item: Short answer please: Kd, Mitogen-activated protein kinase 10 (Homo sapiens, UniProt P53779), entry N#CC1(c2ccc(NC(=O)c3cccnc3NCc3ccncc3)cc2)CCCC1 [RIVOCERANIB]
Reply: > 30 µM (inactive)

Task item: Short answer please: Kd, Mitogen-activated protein kinase 10 (Homo sapiens, UniProt P53779), entry O=C(Nc1cc(C(F)(F)F)cc(C(F)(F)F)c1)c1cc(Cl)ccc1O [IMD-0354]
Reply: > 30 µM (inactive)

Task item: Short answer please: Kd, Mitogen-activated protein kinase 10 (Homo sapiens, UniProt P53779), entry CO[C@H]1C[C@@H]2CC[C@@H](C)[C@@](O)(O2)C(=O)C(=O)N2CCCC[C@H]2C(=O)O[C@H]([C@H](C)C[C@@H]2CC[C@@H](OC(=O)C(C)(CO)CO)[C@H](OC)C2)CC(=O)[C@H](C)/C=C(\C)[C@@H](O)[C@@H](OC)C(=O)[C@H](C)C[C@H](C)/C=C/C=C/C=C/1C [TEMSIROLIMUS]
Reply: > 30 µM (inactive)

Task item: Short answer please: Kd, Mitogen-activated protein kinase 10 (Homo sapiens, UniProt P53779), entry CO[C@H]1C[C@@H]2CC[C@@H](C)[C@@](O)(O2)C(=O)C(=O)N2CCCC[C@H]2C(=O)O[C@H]([C@H](C)C[C@@H]2CC[C@@H](O)[C@H](OC)C2)CC(=O)[C@H](C)/C=C(\C)[C@@H](O)[C@@H](OC)C(=O)[C@H](C)C[C@H](C)/C=C/C=C/C=C/1C [SIROLIMUS]
Reply: > 30 µM (inactive)

Task item: Short answer please: Kd, Mitogen-activated protein kinase 10 (Homo sapiens, UniProt P53779), entry Nc1ncnc2c1c(-c1cccc(OCc3ccccc3)c1)cn2[C@H]1C[C@@H](CN2CCC2)C1 [AEW-541]
Reply: > 30 µM (inactive)

Now consider a different compound.
Task item: Short answer please: Kd, Mitogen-activated protein kinase 10 (Homo sapiens, UniProt P53779), entry CN(C[C@@H]1COCCO1)S(=O)(=O)Nc1ccc2ccc3ncc(-c4cnn(C)c4)cc3c(=O)c2c1 [MK-2461]
Reply: 4.7 µM (active)

====

measurementTarget: Ephrin type-A receptor 5 (Homo sapiens); also: in the data inactive means no Kd found up to 30 µM
Sequence (P54756 whole entry): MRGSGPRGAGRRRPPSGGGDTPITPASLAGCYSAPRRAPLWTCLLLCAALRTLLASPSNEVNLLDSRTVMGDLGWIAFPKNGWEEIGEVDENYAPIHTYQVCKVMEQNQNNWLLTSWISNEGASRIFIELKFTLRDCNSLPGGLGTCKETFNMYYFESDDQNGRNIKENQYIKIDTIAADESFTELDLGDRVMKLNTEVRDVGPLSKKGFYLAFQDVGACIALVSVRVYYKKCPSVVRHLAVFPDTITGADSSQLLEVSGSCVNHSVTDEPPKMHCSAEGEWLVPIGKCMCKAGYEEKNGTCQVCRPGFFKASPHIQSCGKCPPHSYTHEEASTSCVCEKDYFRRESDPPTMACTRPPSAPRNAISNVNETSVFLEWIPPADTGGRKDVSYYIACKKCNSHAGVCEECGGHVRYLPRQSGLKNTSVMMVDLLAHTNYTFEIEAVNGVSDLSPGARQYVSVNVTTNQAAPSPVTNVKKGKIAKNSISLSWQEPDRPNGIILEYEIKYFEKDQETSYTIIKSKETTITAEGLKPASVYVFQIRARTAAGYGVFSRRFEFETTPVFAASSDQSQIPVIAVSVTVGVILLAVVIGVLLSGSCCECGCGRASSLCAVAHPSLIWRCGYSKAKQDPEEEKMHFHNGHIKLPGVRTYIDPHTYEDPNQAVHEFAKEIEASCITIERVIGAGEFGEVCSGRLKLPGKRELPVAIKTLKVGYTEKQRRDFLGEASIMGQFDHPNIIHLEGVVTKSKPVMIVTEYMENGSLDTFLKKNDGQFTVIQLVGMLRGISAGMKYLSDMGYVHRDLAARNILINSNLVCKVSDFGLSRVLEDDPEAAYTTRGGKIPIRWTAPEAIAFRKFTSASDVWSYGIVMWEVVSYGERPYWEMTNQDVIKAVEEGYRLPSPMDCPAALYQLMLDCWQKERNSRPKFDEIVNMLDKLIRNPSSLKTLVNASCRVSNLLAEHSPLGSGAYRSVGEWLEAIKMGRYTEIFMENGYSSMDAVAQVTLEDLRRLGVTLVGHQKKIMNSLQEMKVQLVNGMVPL
The source made the active and inactive calls.
Respond only with the outcome that fits, drawn from active, inactive

Worked examples follow.
Task item: What was the test verdict on FC(F)(F)c1ccc(/C=C/c2nc(COc3ccc(CCCCn4ccnn4)cc3)co2)cc1 ?
Reply: inactive

Task item: What was the test verdict on Cn1cnc2c(F)c(Nc3ccc(Br)cc3F)c(C(=O)NOCCO)cc21 ?
Reply: inactive

Task item: What was the test verdict on CN(C[C@@H]1COCCO1)S(=O)(=O)Nc1ccc2ccc3ncc(-c4cnn(C)c4)cc3c(=O)c2c1 ?
Reply: inactive

Task item: What was the test verdict on Cn1cc(-c2cnc3ccc4ccc(CS(=O)(=O)NCc5ccccn5)cc4c(=O)c3c2)cn1 ?
Reply: inactive

Task item: What was the test verdict on CC(=O)NCC(=O)N1[C@@H]2CC[C@H]1c1ccc(Nc3ncc(C(F)(F)F)c(NC4CCC4)n3)cc12 ?
Reply: inactive

Task item: What was the test verdict on CCCCCCCCCCCCCCCCCCOP(=O)([O-])OC1CC[N+](C)(C)CC1 ?
Reply: inactive

Task item: What was the test verdict on Cc1csc(-c2nnc(Nc3ccc(Oc4ncccc4-c4ccnc(N)n4)cc3)c3ccccc23)c1 ?
Reply: inactive

Task item: What was the test verdict on Cc1nc2cc(-c3nn(C(C)C)c4ncnc(N)c34)ccc2o1 ?
Reply: inactive

Task item: What was the test verdict on COCc1c(-c2ccc(NC(=O)Nc3cc(C(F)(F)F)ccc3F)c(F)c2)c2c(N)ncnn2c1CN1CCOCC1 ?
Reply: inactive

Task item: What was the test verdict on CC(=O)c1cnc2ccc(-c3cc(Cl)c(O)c(Cl)c3)nc2c1N[C@H]1CC[C@H](CN(C)C)CC1 ?
Reply: active

***
Task item: What was the test verdict on CN1C/C=C/CCOc2cccc(c2)-c2ccnc(n2)Nc2cccc(c2)C1 ?
Reply: inactive

Task item: What was the test verdict on CCn1cc(-c2ccnc3[nH]c(-c4cccc(CN(C)C)c4)cc23)c(-c2ccc(NC(=O)N(C)C)cc2)n1 ?
Reply: inactive

Task item: What was the test verdict on CCn1c(C(=O)N(C2CC2)C2CC2)cc2c3c(ncn3C)c(Nc3cc(C)n(C)n3)nc21 ?
Reply: inactive

====

Active and inactive are the calls of the source.
Target or system Serine/threonine-protein kinase 24 (Homo sapiens, UniProt Q9Y6E0): recorded Kd listed per item. Also: in the data inactive means no Kd found up to 30 µM.

Solved cases (6 shown):
Task item: Short answer please: Kd, Serine/threonine-protein kinase 24 (Homo sapiens, UniProt Q9Y6E0), entry CC(C)c1cc(CNc2nc(Nc3cc(C4CC4)[nH]n3)cc(N3CCN(C)CC3)n2)on1
Reply: > 30 µM (inactive)

Task item: Short answer please: Kd, Serine/threonine-protein kinase 24 (Homo sapiens, UniProt Q9Y6E0), entry CN(C[C@@H]1COCCO1)S(=O)(=O)Nc1ccc2ccc3ncc(-c4cnn(C)c4)cc3c(=O)c2c1
Reply: > 30 µM (inactive)

Task item: Short answer please: Kd, Serine/threonine-protein kinase 24 (Homo sapiens, UniProt Q9Y6E0), entry C[C@@H](N)c1ccc(C(=O)Nc2ccnc3[nH]ccc23)cc1
Reply: > 30 µM (inactive)

Task item: Short answer please: Kd, Serine/threonine-protein kinase 24 (Homo sapiens, UniProt Q9Y6E0), entry Cc1csc(-c2nnc(Nc3ccc(Oc4ncccc4-c4ccnc(N)n4)cc3)c3ccccc23)c1
Reply: > 30 µM (inactive)

Task item: Short answer please: Kd, Serine/threonine-protein kinase 24 (Homo sapiens, UniProt Q9Y6E0), entry C=CC(=O)N1CCC[C@H](n2c(=O)n(-c3ccc(Oc4ccccc4)cc3)c3c(N)ncnc32)C1
Reply: > 30 µM (inactive)

Task item: Short answer please: Kd, Serine/threonine-protein kinase 24 (Homo sapiens, UniProt Q9Y6E0), entry N#CC1(c2ccc(NC(=O)c3cccnc3NCc3ccncc3)cc2)CCCC1
Reply: > 30 µM (inactive)

***
Task item: Short answer please: Kd, Serine/threonine-protein kinase 24 (Homo sapiens, UniProt Q9Y6E0), entry CNC(=O)c1cccc2cc(Oc3ccnc4cc(OCC5(N)CC5)c(OC)cc34)ccc12
Reply: > 30 µM (inactive)

Task item: Short answer please: Kd, Serine/threonine-protein kinase 24 (Homo sapiens, UniProt Q9Y6E0), entry CC(C)(C)c1nc(-c2cccc(NS(=O)(=O)c3c(F)cccc3F)c2F)c(-c2ccnc(N)n2)s1
Reply: > 30 µM (inactive)

====

Recorded Kd by entry
measurementTarget: Dynamin-like GTPase OPA1, mitochondrial (Homo sapiens, UniProt O60313); also: in the data inactive means no Kd found up to 30 µM
Sequence (O60313 whole entry): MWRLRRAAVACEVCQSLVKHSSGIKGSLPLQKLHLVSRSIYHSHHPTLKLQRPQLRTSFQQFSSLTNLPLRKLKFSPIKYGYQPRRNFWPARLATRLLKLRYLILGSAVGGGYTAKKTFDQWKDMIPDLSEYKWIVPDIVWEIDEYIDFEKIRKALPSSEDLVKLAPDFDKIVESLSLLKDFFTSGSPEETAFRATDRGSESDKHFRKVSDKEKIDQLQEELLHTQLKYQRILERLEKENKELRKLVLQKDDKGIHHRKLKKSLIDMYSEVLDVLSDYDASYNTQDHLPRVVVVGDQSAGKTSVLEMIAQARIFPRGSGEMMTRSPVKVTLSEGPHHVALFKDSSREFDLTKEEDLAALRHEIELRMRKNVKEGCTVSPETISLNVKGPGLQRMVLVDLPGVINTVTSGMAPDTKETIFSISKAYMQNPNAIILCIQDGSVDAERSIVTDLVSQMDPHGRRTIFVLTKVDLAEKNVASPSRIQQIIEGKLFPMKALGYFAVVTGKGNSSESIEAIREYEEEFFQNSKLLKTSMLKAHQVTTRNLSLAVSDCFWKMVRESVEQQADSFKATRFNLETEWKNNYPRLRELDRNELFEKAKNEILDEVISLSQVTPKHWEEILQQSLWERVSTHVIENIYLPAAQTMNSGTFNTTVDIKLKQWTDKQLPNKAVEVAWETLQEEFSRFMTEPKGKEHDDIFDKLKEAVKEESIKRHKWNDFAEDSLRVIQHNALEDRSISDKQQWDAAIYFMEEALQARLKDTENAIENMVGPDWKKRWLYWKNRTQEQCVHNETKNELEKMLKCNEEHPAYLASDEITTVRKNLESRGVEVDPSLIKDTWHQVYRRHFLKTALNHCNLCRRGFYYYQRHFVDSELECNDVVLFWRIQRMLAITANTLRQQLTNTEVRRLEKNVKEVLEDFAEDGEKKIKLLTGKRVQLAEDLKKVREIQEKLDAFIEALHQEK
Calls of active or inactive are those of the source.

Task item: Short answer please: Kd, Dynamin-like GTPase OPA1, mitochondrial (Homo sapiens, UniProt O60313), entry N#CC[C@H](C1CCCC1)n1cc(-c2ncnc3[nH]ccc23)cn1
Reply: > 30 µM (inactive)

Task item: Short answer please: Kd, Dynamin-like GTPase OPA1, mitochondrial (Homo sapiens, UniProt O60313), entry O=C(NOCCO)c1cc(CN2OCCCC2=O)c(F)c(F)c1Nc1ccc(I)cc1F
Reply: > 30 µM (inactive)

Task item: Short answer please: Kd, Dynamin-like GTPase OPA1, mitochondrial (Homo sapiens, UniProt O60313), entry C#Cc1cccc(Nc2ncnc3cc(OC)c(OCCCCCCC(=O)NO)cc23)c1
Reply: > 30 µM (inactive)

Task item: Short answer please: Kd, Dynamin-like GTPase OPA1, mitochondrial (Homo sapiens, UniProt O60313), entry COc1cc2c(Nc3ccc(Cl)c(Cl)c3F)ncnc2cc1OC[C@@H]1C[C@@H]2CN(C)C[C@@H]2C1
Reply: > 30 µM (inactive)

Task item: Short answer please: Kd, Dynamin-like GTPase OPA1, mitochondrial (Homo sapiens, UniProt O60313), entry Cc1csc(-c2nnc(Nc3ccc(Oc4ncccc4-c4ccnc(N)n4)cc3)c3ccccc23)c1
Reply: > 30 µM (inactive)

Task item: Short answer please: Kd, Dynamin-like GTPase OPA1, mitochondrial (Homo sapiens, UniProt O60313), entry C[C@@H](NC(=O)c1ncnc(N)c1Cl)c1ncc(C(=O)Nc2cc(C(F)(F)F)c(Cl)cn2)s1
Reply: > 30 µM (inactive)

Task item: Short answer please: Kd, Dynamin-like GTPase OPA1, mitochondrial (Homo sapiens, UniProt O60313), entry CNC(=O)c1cccc2cc(Oc3ccnc4cc(OCC5(N)CC5)c(OC)cc34)ccc12
Reply: > 30 µM (inactive)

Task item: Short answer please: Kd, Dynamin-like GTPase OPA1, mitochondrial (Homo sapiens, UniProt O60313), entry NC(=O)c1c(OCc2c(F)cc(Br)cc2F)nsc1NC(=O)NCCCCN1CCCC1
Reply: > 30 µM (inactive)

Task item: Short answer please: Kd, Dynamin-like GTPase OPA1, mitochondrial (Homo sapiens, UniProt O60313), entry FC(F)(F)c1ccc(/C=C/c2nc(COc3ccc(CCCCn4ccnn4)cc3)co2)cc1
Reply: > 30 µM (inactive)

Task item: Short answer please: Kd, Dynamin-like GTPase OPA1, mitochondrial (Homo sapiens, UniProt O60313), entry CCOc1cc2ncc(C#N)c(Nc3ccc(F)c(Cl)c3)c2cc1NC(=O)/C=C/CN(C)C
Reply: > 30 µM (inactive)

***
Task item: Short answer please: Kd, Dynamin-like GTPase OPA1, mitochondrial (Homo sapiens, UniProt O60313), entry Cc1nc2cc(-n3ncc(C(=O)c4cc5ccccc5[nH]4)c3N)ccc2[nH]1
Reply: > 30 µM (inactive)

Task item: Short answer please: Kd, Dynamin-like GTPase OPA1, mitochondrial (Homo sapiens, UniProt O60313), entry CCn1c(C(=O)N(C2CC2)C2CC2)cc2c3c(ncn3C)c(Nc3cc(C)n(C)n3)nc21
Reply: > 30 µM (inactive)

Task item: Short answer please: Kd, Dynamin-like GTPase OPA1, mitochondrial (Homo sapiens, UniProt O60313), entry Cn1cc(-c2cnc3ccc4ccc(CS(=O)(=O)NCc5ccccn5)cc4c(=O)c3c2)cn1
Reply: > 30 µM (inactive)

Task item: Short answer please: Kd, Dynamin-like GTPase OPA1, mitochondrial (Homo sapiens, UniProt O60313), entry C=CC(=O)Nc1cc2c(Nc3ccc(F)c(Cl)c3)ncnc2cc1C#CC(C)(C)N1CCN(C)CC1 [AV-412 FREE BASE]
Reply: > 30 µM (inactive)

Task item: Short answer please: Kd, Dynamin-like GTPase OPA1, mitochondrial (Homo sapiens, UniProt O60313), entry C=CC(=O)N1CCC[C@H](n2c(=O)n(-c3ccc(Oc4ccccc4)cc3)c3c(N)ncnc32)C1
Reply: > 30 µM (inactive)

Task item: Short answer please: Kd, Dynamin-like GTPase OPA1, mitochondrial (Homo sapiens, UniProt O60313), entry O=C(Cc1ccc(-c2ccc(OCCN3CCOCC3)cc2)cn1)NCc1ccccc1
Reply: > 30 µM (inactive)
